# pIC50 per record follows
target: neurotensin receptor 1 (Homo sapiens, UniProt P30989)
Sequence (P30989 whole entry): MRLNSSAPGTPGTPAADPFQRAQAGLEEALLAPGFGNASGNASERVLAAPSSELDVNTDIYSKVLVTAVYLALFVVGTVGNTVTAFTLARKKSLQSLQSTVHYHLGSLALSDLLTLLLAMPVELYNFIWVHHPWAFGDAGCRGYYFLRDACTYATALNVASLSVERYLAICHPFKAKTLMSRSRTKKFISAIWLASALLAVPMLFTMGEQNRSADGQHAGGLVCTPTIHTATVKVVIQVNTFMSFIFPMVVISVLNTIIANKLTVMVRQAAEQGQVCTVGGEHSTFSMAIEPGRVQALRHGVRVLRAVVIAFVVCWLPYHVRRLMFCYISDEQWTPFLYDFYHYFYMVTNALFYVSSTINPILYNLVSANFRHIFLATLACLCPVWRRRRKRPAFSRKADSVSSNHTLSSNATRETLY
pIC50: −log10 of the molar value.

Some solved entries appear below for comparison.
MOLECULE	pIC50
COc1cccc(OC)c1-c1cc(C(=O)NC2(C(=O)O)C3CC4CC(C3)CC2C4)nn1-c1ccnc2cc(Cl)ccc12 (stereo not shown)	6.80
CS(=O)(=O)CCNCc1ccc(-c2ccc3ncnc(Nc4ccc(OCc5cccc(F)c5)c(Cl)c4)c3c2)o1	< 5.70
COc1cc2ncnc(Nc3ccc(F)c(Cl)c3)c2cc1OCCCN1CCOCC1	< 5.70

Now consider the entry below.
Query pIC50 on neurotensin receptor 1 (Homo sapiens, UniProt P30989) for C[C@@H]1CN([C@H]2CC[C@](C#N)(c3ccc(F)cc3)CC2)CC[C@]1(C(=O)O)c1ccccc1
< 5.70
